Below, each of the compounds is paired with its reported CC50 value.
- Test system: Vero cells
- settings: African green monkey
readout_kind: CC50

INSERT INTO results (compound, value_measured) VALUES
  ('Cc1cc(C(=O)NCCN)c2cnn(C(C)C)c2n1 [Compound 12e]', '> 300 µM'),
  ('Cc1cc(C(=O)NCCN(C)C)c2cnn(C(C)C)c2n1 [Compound 12a]', '> 300 µM'),
  ('CC(CN(C)C)NC(=O)c1cc(C2CC2)nc2c1cnn2C(C)C (stereo not shown) [Compound 7f]', '> 300 µM'),
  ('CC(C)c1cc(C(=O)NCCN(C)C)c2cnn(C(C)C)c2n1 [Compound 10a]', '> 300 µM'),
  ('Cc1cc(C(=O)NC2CN(C)C2)c2cnn(C(C)C)c2n1 [Compound 12c]', '> 300 µM'),
  ('CCn1ncc2c(C(=O)NCCN(C)C)cc(C3CC3)nc21 [Compound 16]', '> 300 µM'),
  ('CNCCNC(=O)c1cc(C)nc2c1cnn2C(C)C [Compound 12d]', '> 300 µM'),
  ('Cc1cc(C(=O)NC2CCN(C)C2)c2cnn(C(C)C)c2n1 (stereo not shown) [Compound 12b]', '> 300 µM'),
  ('CNCCNC(=O)c1cc(C2CC2)nc2c1cnn2C(C)C [Compound 7h]', '> 100 µM'),
  ('CC(C)n1ncc2c(C(=O)NCCCN(C)C)cc(C3CC3)nc21 [Compound 7l]', '> 200 µM');

---

- Tested on: EV-D68
- test_name: microbe, parasite or virus in culture
- Format: cell-based, enterovirus D68 (EV-D68)
- settings: Enterovirus D, EVD68, RD, read-out: EC50, EV-D68 US/KY/14-18953 (Clade D)
pEC50: −log10 of the molar value.
readout_kind: pEC50

INSERT INTO measurements (compound, readout_kind, value_measured) VALUES
  ('CC(C)n1ncc2c(C(=O)NCCN(C)C)cc(C3CC3)nc21 [Compound 7d]', 'pEC50', 7.00),
  ('CC(C)c1cc(C(=O)NCCN(C)C)c2cnn(C(C)C)c2n1 [Compound 10a]', 'pEC50', 7.00),
  ('Cc1cc(C(=O)NCCN(C)C)c2c(C)nn(C(C)(C)C)c2n1 [Compound 19]', 'pEC50', 6.00),
  ('CNCCNC(=O)c1cc(C2CC2)nc2c1cnn2C(C)C [Compound 7h]', 'pEC50', 6.70);

---

Below, each of the molecules is paired with its reported CC50 value.
- test_name: in vitro
- settings: human, CC50 (EV-D68 US/MO/14-18949 row group)
readout_kind: CC50

INSERT INTO measurements (molecule, value_measured) VALUES
  ('CC(C)n1ncc2c(C(=O)NCCN(C)C)cc(C3CC3)nc21 [Compound 7d]', '200 µM'),
  ('CNCCNC(=O)c1cc(C2CC2)nc2c1cnn2C(C)C [Compound 7h]', '236 µM');

---

- test_name: in vitro
- settings: human, CC50 (EV-A71 A71 MP4 row group)
readout_kind: CC50 (µM)

INSERT INTO assay_data (smiles_record, output_unit, value_measured) VALUES
  ('Cc1cc(C(=O)NCCN(C)C)c2c(C)nn(C(C)(C)C)c2n1', 'µM', 236);

---

- test_name: in vitro
- settings: human, CC50 (EV-A71 USA/CT/2016-19519)
readout_kind: CC50 (µM)

INSERT INTO assay_data (smiles_record, output_unit, value_measured) VALUES
  ('CC(C)n1ncc2c(C(=O)NCCN(C)C)cc(C3CC3)nc21', 'µM', 200),
  ('CNCCNC(=O)c1cc(C2CC2)nc2c1cnn2C(C)C', 'µM', 236),
  ('Cc1cc(C(=O)NCCN(C)C)c2c(C)nn(C(C)(C)C)c2n1', 'µM', 236);

---

- System: EV-A71
- test_name: microbe, parasite or virus in culture
- Format: cell-based, enterovirus A71 (EV-A71)
- settings: Enterovirus A, EVA71, RD, read-out: EC50, EV-A71 A71 MP4
Below, each of the compounds is paired with its reported EC50 value.
readout_kind: EC50 (nM)

INSERT INTO assay_data (compound, study_target, readout_kind, value_measured) VALUES
  ('CC(C)c1cc(C(=O)NCCN(C)C)c2cnn(C(C)C)c2n1 [Compound 10a]', 'EV-A71', 'EC50', 200),
  ('CNCCNC(=O)c1cc(C2CC2)nc2c1cnn2C(C)C', 'EV-A71', 'EC50', 300),
  ('Cc1cc(C(=O)NCCN(C)C)c2c(C)nn(C(C)(C)C)c2n1', 'EV-A71', 'EC50', 2000),
  ('CC(C)n1ncc2c(C(=O)NCCN(C)C)cc(C3CC3)nc21', 'EV-A71', 'EC50', 100);

---

- test_name: in vitro
- settings: human, CC50, in RD cells (Anti-EV-D68)
Below, each of the compounds is paired with its reported CC50 value.
readout_kind: CC50 (µM)

INSERT INTO assay_data (compound, output_unit, value_measured) VALUES
  ('CNCCNC(=O)c1cc(C2CC2)nc2c1cnn2C(C)C', 'µM', 236),
  ('CC(C)n1ncc2c(C(=O)NCCN(C)C)cc(C3CC3)nc21', 'µM', 200),
  ('CC(C)n1ncc2c(C(=O)NC3CCN(C)C3)cc(C3CC3)nc21 (stereo not drawn)', 'µM', 20.7);

---

- Tested on: EV-D68
- test_name: microbe, parasite or virus in culture
- Assay type: cell-based, enterovirus D68 (EV-D68)
- settings: Enterovirus D, EVD68, RD, read-out: EC50, EV-D68 US/IL/14-18956 (Clade B2)
pEC50: −log10 of the molar value.
readout_kind: pEC50

INSERT INTO measurements (molecule, value_measured) VALUES
  ('CNCCNC(=O)c1cc(C2CC2)nc2c1cnn2C(C)C', 6.70),
  ('CC(C)c1cc(C(=O)NCCN(C)C)c2cnn(C(C)C)c2n1 [Compound 10a]', 7.15),
  ('CC(C)n1ncc2c(C(=O)NCCN(C)C)cc(C3CC3)nc21', 7.40),
  ('Cc1cc(C(=O)NCCN(C)C)c2c(C)nn(C(C)(C)C)c2n1', 6.40);

---

- Tested on: RD cells
- settings: human
readout_kind: CC50

INSERT INTO measurements (compound, value_measured) VALUES
  ('CC(C)c1cc(C(=O)NCCO)c2cnn(C(C)C)c2n1 [Compound 10b]', '> 100 µM'),
  ('CCn1ncc2c(C(=O)NCCNC)cc(C)nc21 [Compound 15b]', '> 300 µM'),
  ('Cc1cc(C(=O)NC2CCN(C)C2)c2cnn(C(C)C)c2n1 (stereo not shown) [Compound 12b]', '> 300 µM'),
  ('Cc1cc(C(=O)NC2CN(C)C2)c2cnn(C(C)C)c2n1 [Compound 12c]', '> 300 µM'),
  ('CC(CN(C)C)NC(=O)c1cc(C(C)C)nc2c1cnn2C(C)C (stereo not shown) [Compound 10c]', '> 100 µM'),
  ('CN(C)CCNC(=O)c1cc(C2CC2)nc2c1cnn2C', '> 300 µM'),
  ('CCn1ncc2c(C(=O)NCCN(C)C)cc(C)nc21 [Compound 15a]', '> 300 µM'),
  ('CNCCNC(=O)c1cc(C(C)C)nc2c1cnn2C(C)C [Compound 10d]', '> 100 µM'),
  ('CNCCNC(=O)c1cc(C)nc2c1cnn2C(C)C [Compound 12d]', '> 300 µM'),
  ('Cc1cc(C(=O)NCCN)c2cnn(C(C)C)c2n1 [Compound 12e]', '> 300 µM');
